# MEASURED_ON: Ryanodine receptor (Hemicentrotus pulcherrimus)
# METHOD_NOTES: Agonist activity at ryanodine receptor in Hemicentrotus pulcherrimus egg homogenate assessed as increase in intracellular calcium mobilization by Fluo-3 dye based fluorimetric assay
# Assay type: cell-based
Calls of active or inactive are those of the source. The rule behind the calls is not given here.
PROPERTY_LABEL: Activity

Nc1c2nc(Cl)n3c2nc[n+]1[C@@H]1C[C@H](COP(=O)(O)OP(=O)([O-])OC[C@H]2O[C@@H]3[C@H](O)[C@@H]2O)[C@@H](O)[C@H]1O	Active
[N-]=[N+]=Nc1nc2c(N)[n+]3cnc2n1[C@@H]1O[C@H](COP(=O)(O)OP(=O)([O-])OC[C@H]2C[C@@H]3[C@H](O)[C@@H]2O)[C@@H](O)[C@H]1O	Active
Nc1nc2c(N)[n+]3cnc2n1[C@@H]1O[C@H](COP(=O)([O-])OP(=O)(O)OC[C@H]2C[C@@H]3[C@H](O)[C@@H]2O)[C@@H](O)[C@H]1O	Active

---

# METHOD_NOTES: Dissociation constant, pKa of the compound
# Type: physicochemical
PROPERTY_LABEL: pKa
Form rule: numeric answer, no unit written next to it.

Study these solved cases before continuing.
Nc1c2ncn3c2nc[n+]1[C@@H]1S[C@H](COP(=O)([O-])OP(=O)(O)OC[C@H]2O[C@@H]3[C@H](O)[C@@H]2O)[C@@H](O)[C@H]1O	8
Nc1c2ncn3c2nc[n+]1[C@@H]1C[C@H](COP(=O)([O-])OP(=O)(O)OC[C@H]2O[C@@H]3[C@H](O)[C@@H]2O)[C@@H](O)[C@H]1O	9

Here's the next entry for you.
Using the record for `Nc1c2ncn3c2nc[n+]1[C@@H]1O[C@H](COP(=O)([O-])OP(=O)(O)OC[C@H]2O[C@@H]3[C@H](O)[C@@H]2O)[C@@H](O)[C@H]1O` , state its measured pKa.
8.3
